Test system: U251 CNS
assay_info: NCI-60 one-dose screen, 48 h (100 = growth as untreated, 0 = no growth, -100 = all killed)
settings: 10 µM unless noted
About 83,000 compounds went through this panel and 20% of them were active in at least one assay; those are over-represented in the sample as a whole.
experimental_endpoint: growth (%)
Numbers only, in %.

Some compounds with known growth results, for comparison:
compound=NCCOc1ccccc1/C=C1\c2ccccc2-c2ccc([N+](=O)[O-])cc21 unit=% value_observed=-74.1
compound=O=C(CN1C(=O)/C(=C\c2ccc(Cl)cc2)SC1=S)Nc1ncc(Cc2ccc(Cl)cc2)s1 unit=% value_observed=100
compound=O=Cc1c(OCc2cnnn2CC(=O)Nc2ccc(Br)cc2)ccc2ccccc12 unit=% value_observed=90.4
compound="COc1cccc(C(=O)NC(c2ccc(C)cc2)c2cc(Cl)c3cccnc3c2O)c1 (configuration not stated)" unit=% value_observed=3.81
compound=O=c1oc2ccc(I)cc2c(=O)n1-c1ccc(I)cc1F unit=% value_observed=1.81
compound="CCCCC(O)(c1ccc(Cl)cc1)C(CN1CCOCC1)c1ccc(Cl)cc1 (configuration not stated)" unit=% value_observed=23.1
compound=Cn1c(/C=C(\C#N)c2cccc(C(F)(F)F)c2)nc2c(N3CCOCC3)nc(Cl)nc21 unit=% value_observed=2.31
compound=CCOc1ccc2c(c1)CN(Cc1ccc(Cl)cc1)CO2 unit=% value_observed=25.4

Go through the items and report each one's growth.
1. CSc1nc2c(c(=O)[nH]1)N=C1c3ccccc3C(=O)C1C(c1ccccc1)N2 (configuration not stated)
2. CCN(CC)CCNC(=O)C(Cl)=C1C(Cl)=C(Cl)C(Cl)=C1Cl

1: 37.5; 2: 40.8

Go through the items and report each one's growth.
1. O=C(CCc1nnc2sc(COc3ccccc3)nn12)c1nc2ncccc2[nH]1
2. O=C(N/N=C/c1ccccc1O)C(=O)Nc1ccc(F)cc1

[101, 33.5]

Go through the items and report each one's growth.
1. Cc1cc(OC(=O)c2ccc([N+](=O)[O-])cc2)nc2[nH]c(=O)sc12
2. CCN(CC)c1cc(C)c2cc(NC(=O)c3cccc(OC)c3)ccc2n1
3. CC(C)[C@H](NC(=O)Cn1cc(C(=O)O)nn1)C(=O)O
4. COc1ccc(Cn2c(Br)c3c(c2Br)-c2nc(N)sc2CC3)cc1
5. Cc1ccc2[nH]c(=O)cc(-n3nncc3Cn3c4ccccc4c4ccccc43)c2c1
6. O=C1NC(=S)NC(=O)C1=Cc1cn(Cc2cn(Cc3cccc4ccccc34)nn2)c2ccccc12
7. COc1ccc(Br)c(/C=C2\SC(=Nc3ccc(O)cc3)NC2=O)c1
8. CCN1CCN(C(=S)SCC(=O)Nc2nc3ccc(C)cc3s2)CC1

97.1
55
100
36.5
99.2
102
86.6
110

Go through the items and report each one's growth.
1. COc1cccc2c(=O)c3c(sc12)c(NCCCNCCO)nc1ccccc13
2. CCCCCCC(O)(c1ccc(F)cc1)C(CN1CCOCC1)c1ccccc1 (configuration not stated)
3. O=C(Nc1ccc(I)cc1F)c1cc(Cl)ccc1O
4. COc1ccc(C(O)(CCC(C)C)C(CN2CCOCC2)c2ccc(Cl)cc2)cc1 (configuration not stated)

[14.4, 28, 0.895, 66.1]

Go through the items and report each one's growth.
1. Nc1nc(Nc2cccc(F)c2)nc2ccccc12
2. Nc1nc(-c2cnccn2)nn1-c1nc2ccccc2s1
3. COc1ccc(OC)c(NC(=O)/C(C#N)=C/c2ccco2)c1

[38, 93.5, 94.2]
